tested on: Proteus mirabilis; experiment: Antibacterial activity against Proteus mirabilis assessed as diameter of inhibition zone measured after 24 hrs by agar disc diffusion method; assay type: functional; also: test concentration or dose not given here
Give diameter of the inhibition zone (DIZ) for every item shown.
Give the value, in units of mm, as a plain number.

# input Request - read-out diameter of the inhibition zone (DIZ) | tested on Proteus mirabilis | compound "O=C(NO)[C@H]1CCCN1C(=O)c1ccc(C#Cc2ccc(CN3CCOCC3)cc2)cc1"
# output 9

# input Request - read-out diameter of the inhibition zone (DIZ) | tested on Proteus mirabilis | compound "N[C@H]1C[C@@H](C(=O)NO)N(C(=O)c2ccc(C#Cc3ccc(CN4CCOCC4)cc3)cc2)C1"
# output 7

# input Request - read-out diameter of the inhibition zone (DIZ) | tested on Proteus mirabilis | compound "Nc1ccc(C#Cc2ccc(C(=O)N3C[C@H](O)C[C@H]3C(=O)NO)cc2)cc1"
# output 7

# input Request - read-out diameter of the inhibition zone (DIZ) | tested on Proteus mirabilis | compound "CC1(C)O[C@@H]2[C@@H](CN(C(=O)c3ccc(C#Cc4ccc(CN5CCOCC5)cc4)cc3)[C@H]2C(=O)NO)O1"
# output 8

# input Request - read-out diameter of the inhibition zone (DIZ) | tested on Proteus mirabilis | compound "Nc1ccc(C#Cc2ccc(C(=O)N3C[C@@H](O)C[C@H]3C(=O)NO)cc2)cc1"
# output 8

# input Request - read-out diameter of the inhibition zone (DIZ) | tested on Proteus mirabilis | compound "O=C(NO)[C@@H]1C[C@H](O)CN1C(=O)c1ccc(C#Cc2ccc(CN3CCC(O)CC3)cc2)cc1"
# output 11

# input Request - read-out diameter of the inhibition zone (DIZ) | tested on Proteus mirabilis | compound "CN(C)c1ccc(C#Cc2ccc(C(=O)N3C[C@H](O)C[C@H]3C(=O)NO)cc2)cc1"
# output 8

# input Request - read-out diameter of the inhibition zone (DIZ) | tested on Proteus mirabilis | compound "O=C(NO)[C@@H]1C[C@H](O)CN1C(=O)c1ccc(C#Cc2ccc(CN3CCCCC3)cc2)cc1"
# output 11

# input Request - read-out diameter of the inhibition zone (DIZ) | tested on Proteus mirabilis | compound "O=C(NO)[C@@H]1CCCN1Cc1ccc(C#Cc2ccc(CN3CCSCC3)cc2)cc1"
# output 8

# input Request - read-out diameter of the inhibition zone (DIZ) | tested on Proteus mirabilis | compound "O=C(NO)[C@@H]1C[C@H](O)CN1C(=O)c1ccc(C#Cc2ccc(CN3CCSCC3)cc2)cc1"
# output 10

# input Request - read-out diameter of the inhibition zone (DIZ) | tested on Proteus mirabilis | compound "O=C(NO)[C@@H]1C[C@@H](O)CN1C(=O)c1ccc(C#Cc2ccc(CN3CCOCC3)cc2)cc1"
# output 9

# input Request - read-out diameter of the inhibition zone (DIZ) | tested on Proteus mirabilis | compound "O=C(NO)[C@@H]1CCCN1C(=O)c1ccc(C#Cc2ccc(CN3CCCCC3)cc2)cc1"
# output 10

# input Request - read-out diameter of the inhibition zone (DIZ) | tested on Proteus mirabilis | compound "O=C(NO)[C@@H]1C[C@H](O)CN1C(=O)c1ccc(C#Cc2ccc(CN3CCOCC3)cc2)cc1"
# output 11

# input Request - read-out diameter of the inhibition zone (DIZ) | tested on Proteus mirabilis | compound "COc1ccc(C#Cc2ccc(C(=O)N3C[C@H](O)C[C@H]3C(=O)NO)cc2)cc1"
# output 7

# input Request - read-out diameter of the inhibition zone (DIZ) | tested on Proteus mirabilis | compound "O=C(NO)[C@@H]1CCCN1Cc1ccc(C#Cc2ccc(CN3CCOCC3)cc2)cc1"
# output 18

# input Request - read-out diameter of the inhibition zone (DIZ) | tested on Proteus mirabilis | compound "CCCCCc1ccc(C#Cc2ccc(C(=O)N3C[C@@H](O)C[C@H]3C(=O)NO)cc2)cc1"
# output 7

# input Request - read-out diameter of the inhibition zone (DIZ) | tested on Proteus mirabilis | compound "O=C(NO)[C@@H]1CCCN1C(=O)c1ccc(C#Cc2ccc(CN3CCOCC3)cc2)cc1"
# output 12

# input Request - read-out diameter of the inhibition zone (DIZ) | tested on Proteus mirabilis | compound "O=C(NO)[C@@H]1C[C@H](O)CN1C(=O)c1ccc(C#Cc2ccccc2)cc1"
# output 7

src = ChEMBL document CHEMBL4392848
